Just for reference, the FLAb antibody collection (doi:10.7554/elife.23156) is where these values come from.

Reported Kd is given for each of the following variants.
B1: scFv; the commonest letter at each place (parent)
chain 1: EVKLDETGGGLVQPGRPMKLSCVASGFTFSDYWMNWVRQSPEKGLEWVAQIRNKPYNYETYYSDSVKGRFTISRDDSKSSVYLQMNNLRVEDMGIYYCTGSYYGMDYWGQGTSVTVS
chain 2: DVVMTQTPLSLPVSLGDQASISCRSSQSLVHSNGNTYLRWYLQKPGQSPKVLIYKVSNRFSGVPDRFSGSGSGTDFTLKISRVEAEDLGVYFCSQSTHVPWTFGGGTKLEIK

variants of: B1; assay: Kd (Tite-Seq); conditions: with fluorescein; format: scFv 4-4-20, heavy + light
QUANTITY_KIND: Kd

>>> obs_value("chain 1 S30H D31I")
"≥ 10 µM"
>>> obs_value("chain 1 G100I G104W")
"≥ 10 µM"
>>> obs_value("chain 1 T28Q M34P")
"≥ 10 µM"
>>> obs_value("chain 1 Y103R G109I")
"≥ 10 µM"
>>> obs_value("chain 1 D106W")
"≥ 10 µM"
>>> obs_value("chain 1 F29E D31R")
"≥ 10 µM"
>>> obs_value("chain 1 D31Q V37P")
"0.00827 µM"
>>> obs_value("chain 1 Y107G W108L G109E")
"≥ 10 µM"
>>> obs_value("chain 1 T28R Y32G")
"0.0132 µM"
>>> obs_value("chain 1 D31E W36H")
"≥ 10 µM"
>>> obs_value("chain 1 Y32T")
"≥ 10 µM"
>>> obs_value("chain 1 Y103T D106R")
"≥ 10 µM"
>>> obs_value("chain 1 W108G G109V")
"≥ 10 µM"
>>> obs_value("chain 1 M34C N35I")
"≥ 10 µM"
>>> obs_value("chain 1 W33F N35T")
"≥ 10 µM"
>>> obs_value("chain 1 Y102Q")
"0.0335 µM"
>>> obs_value("chain 1 F29L V37P")
"≥ 10 µM"
>>> obs_value("chain 1 W108D")
"≥ 10 µM"
>>> obs_value("chain 1 Y102Q M105Y")
"0.75 µM"
>>> obs_value("chain 1 F29T")
"0.00941 µM"
>>> obs_value("chain 1 Y102T Y103C")
"0.0245 µM"
>>> obs_value("chain 1 D106Q Y107I")
"≥ 10 µM"
>>> obs_value("chain 1 S30A M34L")
"0.00115 µM"
>>> obs_value("chain 1 Y103V M105P")
"≥ 10 µM"
>>> obs_value("chain 1 G100Y Y103C")
"≥ 10 µM"
>>> obs_value("chain 1 S30R V37M")
"≤ 0.000316 µM"
>>> obs_value("chain 1 S101W G104H")
"≥ 10 µM"
>>> obs_value("chain 1 Y103K G104I")
"≥ 10 µM"
>>> obs_value("chain 1 D106N G109K")
"≥ 10 µM"
>>> obs_value("chain 1 S30Q D31E N35K")
"≥ 10 µM"
>>> obs_value("chain 1 G100K")
"≥ 10 µM"
>>> obs_value("chain 1 M34I V37M")
"0.00184 µM"
>>> obs_value("chain 1 Y107N")
"0.0104 µM"
>>> obs_value("chain 1 M105P Y107H")
"≥ 10 µM"
>>> obs_value("chain 1 T28R W33L")
"≥ 10 µM"
>>> obs_value("chain 1 T28K M34V")
"0.00122 µM"
>>> obs_value("chain 1 F29K D31K W33G")
"≥ 10 µM"
>>> obs_value("chain 1 S30F M34E")
"≤ 0.000316 µM"
>>> obs_value("chain 1 G100H S101G")
"≥ 10 µM"
>>> obs_value("chain 1 Y103E W108I")
"0.004 µM"
>>> obs_value("chain 1 G104D M105W")
"≥ 10 µM"
>>> obs_value("chain 1 Y32L V37R")
"≥ 10 µM"
>>> obs_value("chain 1 S30V D31V W36E")
"≥ 10 µM"
>>> obs_value("chain 1 D31A")
"0.00343 µM"
>>> obs_value("chain 1 Y103P D106T W108C")
"≥ 10 µM"
>>> obs_value("chain 1 Y32D W33V")
"≥ 10 µM"
